measurement-parameters: pampa; 60.0 min; 50.0 µM
recorded-endpoint: Papp

Reference set, count: 3
[[record]]
compound = "COc1ccc(Cn2c(-c3ccccc3)c(-c3ccccc3)c3c(=N)n(N4CCOCC4)cnc32)cc1"
test_result = "160 ×10⁻⁶ cm/s"

[[record]]
compound = "NC(=O)NCC(=O)N[C@H]1CC[C@H](Nc2nccc(-c3ccncc3)n2)C1"
test_result = "< 1 ×10⁻⁶ cm/s"

[[record]]
compound = "Cc1cc(-c2nc(C(=O)Nc3cn(C4CCOCC4)nc3C(N)=O)co2)ccn1"
test_result = "43 ×10⁻⁶ cm/s"


*Q* May I ask what Papp has been recorded for Cc1[nH]c2ccccc2c1C1(O)C(=O)N(Cc2ccccc2)c2ccc(Cl)cc21 (centres undefined) ?
*A* > 300 ×10⁻⁶ cm/s

*Q* May I ask what Papp has been recorded for CC1(C)S[C@@H]2[C@H](NC(=O)C(C(=O)Oc3ccc4c(c3)CCC4)c3ccccc3)C(=O)N2[C@H]1C(=O)O (some centres undefined) ?
*A* < 1 ×10⁻⁶ cm/s

*Q* May I ask what Papp has been recorded for `CCCCOC(=O)NS(=O)(=O)c1sc(CC(C)C)cc1-c1ccc(Cn2ccnc2)cc1` ?
*A* 180 ×10⁻⁶ cm/s

*Q* May I ask what Papp has been recorded for `C=CCN1CC[C@]23c4c5ccc(O)c4O[C@H]2[C@@H](OCCOCCOCCOCCOCCOCCOCCOC)CC[C@@]3(O)[C@H]1C5` ?
*A* < 1 ×10⁻⁶ cm/s

*Q* May I ask what Papp has been recorded for `N#Cc1cccc(NC(=O)c2sc3nc4c(cc3c2N)N2CCC4CC2)c1` ?
*A* 142 ×10⁻⁶ cm/s

*Q* May I ask what Papp has been recorded for `O=C(O)C1CN(Cc2ccc(-c3nc4cc(Cc5ccccc5F)ccc4s3)c(F)c2)C1` ?
*A* > 300 ×10⁻⁶ cm/s

###

measurement-parameters: pampa; 60.0 min; 50.0 µM
Field: label. Allowed values: Criterion met (Papp < 50 ×10⁻⁶ cm/s) or Criterion not met (Papp >= 50 ×10⁻⁶ cm/s).

[[record]]
molecule = "Clc1ccc(CN[C@H]2CCN(c3ncc(Br)cn3)C2)c(Cl)c1"
class_name = "Criterion not met"


*Q* Lab note: confirm whether the reported Papp for this molecule is below 50 ×10⁻⁶ cm/s, equality not counting. molecule: `CCn1c(C(=O)N(C2CC2)C2CC2)cc2c3c(ncn3C)c(Nc3cc(C)n(C)n3)nc21`
*A* Criterion met

*Q* Lab note: confirm whether the reported Papp for this molecule is below 50 ×10⁻⁶ cm/s, equality not counting. molecule: CN(C)CC1CCOC1(c1ccccc1)c1ccccc1 (centres undefined)
*A* Criterion met

*Q* Lab note: confirm whether the reported Papp for this molecule is below 50 ×10⁻⁶ cm/s, equality not counting. molecule: `CO/N=C(/C(=O)N[C@@H]1C(=O)N2C(C(=O)O)=C(COC(N)=O)CS[C@H]12)c1ccco1`
*A* Criterion met

*Q* Lab note: confirm whether the reported Papp for this molecule is below 50 ×10⁻⁶ cm/s, equality not counting. molecule: `C=CC1=C(C(=O)O)N2C(=O)[C@@H](NC(=O)/C(=N\O)c3csc(N)n3)[C@H]2SC1`
*A* Criterion met

*Q* Lab note: confirm whether the reported Papp for this molecule is below 50 ×10⁻⁶ cm/s, equality not counting. molecule: `CSCC[C@H](NC(=O)[C@H](Cc1ccccc1)NC(=O)CNC(=O)CNC(=O)[C@@H](N)Cc1ccc(O)cc1)C(=O)O`
*A* Criterion met

*Q* Lab note: confirm whether the reported Papp for this molecule is below 50 ×10⁻⁶ cm/s, equality not counting. molecule: `CCO[C@@H]1OC(=O)C[C@@H]1NC(=O)[C@@H]1CCCN1C(=O)[C@@H](NC(=O)c1ccc(N)c(Cl)c1)C(C)(C)C`
*A* Criterion met

*Q* Lab note: confirm whether the reported Papp for this molecule is below 50 ×10⁻⁶ cm/s, equality not counting. molecule: O=C(NC1CCC(O)CC1)c1ccc(-c2ncc3cnc(-c4ccccc4)cn23)cc1 (centres undefined)
*A* Criterion met

*Q* Lab note: confirm whether the reported Papp for this molecule is below 50 ×10⁻⁶ cm/s, equality not counting. molecule: `C1CCC(COCCc2noc(C3CNC3)n2)C1`
*A* Criterion met

*Q* Lab note: confirm whether the reported Papp for this molecule is below 50 ×10⁻⁶ cm/s, equality not counting. molecule: `O=C(/C=C\n1cnc(-c2cc(C(F)(F)F)cc(C(F)(F)F)c2)n1)N1CC(F)(F)C1`
*A* Criterion not met

*Q* Lab note: confirm whether the reported Papp for this molecule is below 50 ×10⁻⁶ cm/s, equality not counting. molecule: `Cn1nnnc1Sc1ncnc2scc(-c3cccc4c3sc3ccccc34)c12`
*A* Criterion met

*Q* Lab note: confirm whether the reported Papp for this molecule is below 50 ×10⁻⁶ cm/s, equality not counting. molecule: `COc1ccc(Cn2c(-c3ccccc3)c(-c3ccccc3)c3c(=N)n(CCO)cnc32)cc1`
*A* Criterion not met

*Q* Lab note: confirm whether the reported Papp for this molecule is below 50 ×10⁻⁶ cm/s, equality not counting. molecule: `N[C@@H](C(=O)N[C@@H]1C(=O)N2C(C(=O)O)=C(Cl)CC[C@H]12)c1ccccc1`
*A* Criterion met

*Q* Lab note: confirm whether the reported Papp for this molecule is below 50 ×10⁻⁶ cm/s, equality not counting. molecule: `COc1ccc(Cl)cc1NC(=O)c1sc2nc3c(cc2c1N)N1CCC3CC1`
*A* Criterion met

*Q* Lab note: confirm whether the reported Papp for this molecule is below 50 ×10⁻⁶ cm/s, equality not counting. molecule: O=C1CCCC2=C1C(c1[nH]ncc1Cl)N=C(Nc1nc3ccccc3o1)N2 (centres undefined)
*A* Criterion not met

*Q* Lab note: confirm whether the reported Papp for this molecule is below 50 ×10⁻⁶ cm/s, equality not counting. molecule: `COc1ccc(-c2c(Cl)ncn2-c2ccc(S(N)(=O)=O)cc2)cc1F`
*A* Criterion not met

*Q* Lab note: confirm whether the reported Papp for this molecule is below 50 ×10⁻⁶ cm/s, equality not counting. molecule: `CCCCCCCCCC(=O)O[C@H]1CC[C@H]2[C@@H]3CCC4=CC(=O)CC[C@@H]4[C@H]3CC[C@]12C`
*A* Criterion met

*Q* Lab note: confirm whether the reported Papp for this molecule is below 50 ×10⁻⁶ cm/s, equality not counting. molecule: `O=C(NCc1cnccn1)c1ccc(-c2ncc3cnc(-c4cccc(F)c4)cn23)cc1`
*A* Criterion not met

*Q* Lab note: confirm whether the reported Papp for this molecule is below 50 ×10⁻⁶ cm/s, equality not counting. molecule: `CN(C(=O)/C=C/c1ccoc1)[C@@H]1CC[C@@]2(O)[C@H]3Cc4ccc(O)c5c4[C@@]2(CCN3CC2CC2)[C@H]1O5`
*A* Criterion met

###

measurement-parameters: pampa; 60.0 min; 50.0 µM
Field: label. Allowed values: T (Papp < 100 ×10⁻⁶ cm/s) or F (Papp >= 100 ×10⁻⁶ cm/s).

Previously resolved entries follow.
[[record]]
molecule = "O=C1C[C@@]2(C(=O)N1)C(=O)N(Cc1ccc(Br)cc1F)C(=O)c1cccn12"
class_name = "T"

[[record]]
molecule = "CCC[C@@H](NC(=O)N1C(=O)C(CC)(CC)[C@@H]1Oc1ccc(C(=O)N2CCN(C)CC2)cc1)c1ccc2c(c1)OCO2"
class_name = "F"

[[record]]
molecule = "O=C1[C@H](CC[C@H](O)c2ccc(F)cc2)[C@@H](c2ccc(O)cc2)N1c1ccc(F)cc1"
class_name = "T"

[[record]]
molecule = "N=c1c2c(-c3ccccc3)c(-c3ccccc3)n(Cc3ccccc3)c2ncn1CC1CCCO1 (stereo not drawn)"
class_name = "F"

[[record]]
molecule = "COc1ccc(Cn2c(-c3ccccc3)c(-c3ccccc3)c3c(=N)n(CC4CCCO4)cnc32)cc1 (stereo not drawn)"
class_name = "F"


*Q* Lab note: confirm whether the reported Papp for this molecule is below 100 ×10⁻⁶ cm/s, equality not counting. molecule: O=C(NCc1ccc(OC(F)(F)F)cc1)C1c2ccccc2C(=O)N1C1CCOCC1 (stereo not drawn)
*A* T

*Q* Lab note: confirm whether the reported Papp for this molecule is below 100 ×10⁻⁶ cm/s, equality not counting. molecule: O=C(NC1CCC(O)CC1)c1ccc(-c2ncc3cnc(-c4cccc(F)c4)cn23)cc1 (stereo not drawn)
*A* T

*Q* Lab note: confirm whether the reported Papp for this molecule is below 100 ×10⁻⁶ cm/s, equality not counting. molecule: `C[C@@H](O)[C@H]1C(=O)N2C(C(=O)O)=C([C@H]3CCCO3)S[C@H]12`
*A* T

*Q* Lab note: confirm whether the reported Papp for this molecule is below 100 ×10⁻⁶ cm/s, equality not counting. molecule: `COC(=O)C[C@@H](C(=O)OC)n1cnc2c(c(-c3ccccc3)cn2Cc2ccccc2)c1=N`
*A* T

*Q* Lab note: confirm whether the reported Papp for this molecule is below 100 ×10⁻⁶ cm/s, equality not counting. molecule: `CN1CCN(CCCN2c3ccccc3Sc3ccc(C(F)(F)F)cc32)CC1`
*A* T

*Q* Lab note: confirm whether the reported Papp for this molecule is below 100 ×10⁻⁶ cm/s, equality not counting. molecule: `C=CCNC1=C2C[C@@H](C)C[C@H](OC)[C@H](O)[C@@H](C)/C=C(\C)[C@H](OC(N)=O)[C@@H](OC)/C=C\C=C(/C)C(=O)NC(=CC1=O)C2=O`
*A* T

*Q* Lab note: confirm whether the reported Papp for this molecule is below 100 ×10⁻⁶ cm/s, equality not counting. molecule: `Cc1ccc(-c2csc3ncnc(Sc4nnnn4C)c23)cc1`
*A* F

*Q* Lab note: confirm whether the reported Papp for this molecule is below 100 ×10⁻⁶ cm/s, equality not counting. molecule: `COC(=O)[C@]12CCC(C)(C)C[C@@H]1[C@@H]1C(=O)C=C3[C@@]4(C)C=C(C#N)C(=O)C(C)(C)[C@@H]4CC[C@@]3(C)[C@]1(C)CC2`
*A* T

*Q* Lab note: confirm whether the reported Papp for this molecule is below 100 ×10⁻⁶ cm/s, equality not counting. molecule: `O=C(Nc1ccc(S(=O)(=O)N2CCOCC2)cc1)c1cc(Cl)ccc1NS(=O)(=O)c1ccc(Cl)s1`
*A* T

*Q* Lab note: confirm whether the reported Papp for this molecule is below 100 ×10⁻⁶ cm/s, equality not counting. molecule: `O=C(Nc1ccc2[nH]c(=O)oc2c1)C(=O)N1CCC(Cc2ccc(F)cc2)CC1`
*A* F

*Q* Lab note: confirm whether the reported Papp for this molecule is below 100 ×10⁻⁶ cm/s, equality not counting. molecule: `CC(=O)c1cc2c(s1)c1cnn(Cc3ccccc3F)c(=O)c1n2C`
*A* F

*Q* Lab note: confirm whether the reported Papp for this molecule is below 100 ×10⁻⁶ cm/s, equality not counting. molecule: `C/C1=C\CC[C@]2(C)O[C@H]2C(=O)c2c(C)coc2C1`
*A* F

*Q* Lab note: confirm whether the reported Papp for this molecule is below 100 ×10⁻⁶ cm/s, equality not counting. molecule: `Nc1nc2c(s1)CCN(Cc1ccc(Cl)cc1)CC2`
*A* F

Reference for the values: PubChem BioAssay AID1845228
